test-system: GST-LXRβ ligand-binding domain (Homo sapiens, UniProt P55055, DUP175-175)
Construct: amino acids 156-461; NP009052
Sequence (P55055 with tags, fused parts or gaps DUP175-175): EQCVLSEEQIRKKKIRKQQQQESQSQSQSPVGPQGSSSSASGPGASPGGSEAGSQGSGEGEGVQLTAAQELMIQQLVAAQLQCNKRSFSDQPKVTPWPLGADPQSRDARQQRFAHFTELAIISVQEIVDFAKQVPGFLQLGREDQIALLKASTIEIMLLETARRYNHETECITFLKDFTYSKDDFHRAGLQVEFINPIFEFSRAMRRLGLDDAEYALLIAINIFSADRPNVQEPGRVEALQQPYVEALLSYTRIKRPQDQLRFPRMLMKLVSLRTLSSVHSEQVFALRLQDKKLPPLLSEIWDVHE
method: TR-FRETβ activity assay (LXRβ-LBD / NCoA3 coactivator peptide, prestimulated with 24(S)-25-epoxycholesterol)
protocol-conditions: 1 μM 24(S)-25-epoxycholesterol as prestimulating agonist; read-out: FRETβ activity range (EC50)
Procedure: The tested compounds were usually dissolved, tested and stored as 20 mM stock solutions in DMSO. […] The reaction was mixed thoroughly, equilibrated for 1 h at 4° C. and vicinity of LXRβ and coactivator peptide was detected by measurement of fluorescence in a VictorX4 multiplate reader (PerkinElmer Life Science) using 340 nm as excitation and 615 and 665 nm as emission wavelengths. […]
pEC50: −log10 of the molar value.
For each record, write down the corresponding pEC50.

// query pEC50 value for entry Cc1cc(C)c(S(=O)(=O)N(Cc2ccc(-c3cccc(S(=O)(=O)C(C)(C)C(=O)O)c3)cc2)Cc2ccc(C(F)(F)F)o2)c(C)c1 [5/2]
5.00 to 6.00

Can you handle Cc1ccc2ccccc2c1[S+]([O-])N(Cc1ccc(-c2cccc(C(C)(C)C(=O)O)c2)cc1)Cc1ccc(C(F)(F)F)o1 (stereo not drawn) [Example 27] next?
6.00 to 7.00

Do the same for Cc1cc(C)c(S(=O)(=O)N(Cc2ccc(-c3cccc(S(=O)(=O)NCC(=O)O)c3)cc2)Cc2ccc(C(F)(F)F)o2)c(C)c1 [Example 25/1] please
5.00 to 6.00

Entry Cc1ccc2cccnc2c1S(=O)(=O)N(Cc1ccc(-c2cccc(C(C)(C)C(=O)NO)c2)cc1)Cc1ccc(C(F)(F)F)o1 [Example 30] please
6.00 to 7.00

Proceed to O=C(O)CS(=O)(=O)c1cccc(-c2ccc(CN(Cc3ccc(C(F)(F)F)o3)S(=O)(=O)c3cccc4ccccc34)cc2)c1 [10/9]
5.00 to 6.00

Do the same for Cc1cc(C)c(S(=O)(=O)N(Cc2ccc(-c3cccc(CC(=O)O)c3)cc2)Cc2cccc(C(F)(F)F)c2)c(C)c1 [2/4] please
6.00 to 7.00
